assayProcedure: in vitro
testParameters: human, hela cells, % viability
experimentalEndpoint: viability at 28.5 h, 10 µM (%)
Record the value in %, omitting the unit from your answer.

Below, each entry is followed by its recorded viability at 28.5 h, 10 µM result.
{"molecule": "CN(C)CCCNC(=S)Nc1ccc(Cl)cc1Cl [CBK264183]", "viability at 28.5 h, 10 µM / %": 92.5}
{"molecule": "CC(=O)Nc1ccc(-c2ccc(=O)n3c2[C@@H]2C[C@@H](CN(C(=O)c4ccccc4)C2)C3)cc1 [CBK289198]", "viability at 28.5 h, 10 µM / %": 89.4}
{"molecule": "OC1(c2cccnc2F)CCN(Cc2ccccc2F)CC1 [CBK284372]", "viability at 28.5 h, 10 µM / %": 91}
{"molecule": "Cc1ccc2oc([C@H]3CN(C(=O)C4CCN(C(=O)OC(C)(C)C)CC4)C[C@@H]3C(=O)O)cc2c1 [CBK001601]", "viability at 28.5 h, 10 µM / %": 90.7}
{"molecule": "FC(F)Oc1ccc(NC(=S)NCCN2CCOCC2)cc1 [CBK028000]", "viability at 28.5 h, 10 µM / %": 87.7}
{"molecule": "O=C(N/N=C/c1ccc(Cl)cc1Cl)c1nc(-c2ccccc2)cc(-c2ccccc2)n1 [CBK262814]", "viability at 28.5 h, 10 µM / %": 90.1}

Read the next record carefully.
Lab note: measured viability at 28.5 h, 10 µM of Cc1nc(-c2cccnc2)[nH]c(=O)c1CC(=O)N(C)CC1CCCCC1 [CBK305785] was 91.4

Hello, the source for this data is paper PMC12040169, in case you need it.
